// provenance: paper PMC3817407

Molecular target: T1, ECF28_1040
T1 chain: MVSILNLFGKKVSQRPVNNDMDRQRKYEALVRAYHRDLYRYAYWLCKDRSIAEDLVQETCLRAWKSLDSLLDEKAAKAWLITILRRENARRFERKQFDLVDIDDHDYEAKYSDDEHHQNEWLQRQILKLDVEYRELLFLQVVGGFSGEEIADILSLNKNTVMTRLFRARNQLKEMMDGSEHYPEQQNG
property label: fold repression

binder	fold repression
AS30_35 (protein) MDKRLQQLREEYKNVQIPKELDIIVEKALQQEPKKKRIVMWPTSAAIAAAILFTALVNINPDAAQAMSKIPVIGKIVKAITFIEIKEEKDQSSIDVKTPALSGLSNKELENSINEKYLKESQQLYKEFIQSTSKNKKGHLSIYSDYETVTDTPDLLSIRRNIETTQASSYTQSRYITIDKKNDILLTLKSLFKDERYIKVISQNIKEQMKQQMKEDPNKIYWLTDEDAEPFKTILPDQTFYITEDHKLVISFDEYEVAPGYMGVTEFTIPTGVISNLLVGERYIR	1.32
AS16_3622 (protein) MMKTDELISLLATAEGPVDRHALARRLGLALLAGLLGALLLTVALYGVRSDLAEVARTPLFWAKVALPTSLALLGLWLTQRLARPGVRGGALWGLLGVPLLLVWLGAAISLFGAPPEARADLIFGRTWRTCALNITLLSTPVFIAVFWALRGLAPTRLRQAGAAGGLLAGSTATLVYCLHCPEMGVPFWGLWYLLGMLVPTLLGAVLGPRLLRW	3.02

Now consider the entry below.
// field: fold repression; key: AS35_3582 (protein) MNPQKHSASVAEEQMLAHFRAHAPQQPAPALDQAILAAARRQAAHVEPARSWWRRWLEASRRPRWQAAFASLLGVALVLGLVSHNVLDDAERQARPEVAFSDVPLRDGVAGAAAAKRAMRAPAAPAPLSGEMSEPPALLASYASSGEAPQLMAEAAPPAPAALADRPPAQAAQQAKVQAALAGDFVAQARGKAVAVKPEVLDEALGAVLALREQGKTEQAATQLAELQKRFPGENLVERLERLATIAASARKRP ; value = 2.76
